# experimentalSystem: T1, APLF FHA domain (residues 1-106) (UniProt Q8IW19 1-106)
# T1 chain: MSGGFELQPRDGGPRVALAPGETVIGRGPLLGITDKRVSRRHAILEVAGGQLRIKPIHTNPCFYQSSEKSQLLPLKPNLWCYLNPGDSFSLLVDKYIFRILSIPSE
# experimentNotes: ITC
Square brackets hold non-standard residues; d marks the D form. Ends that are not written are not given here. pT = C[C@@H](OP(=O)(O)O)[C@H](N)C(=O)O; pS = N[C@@H](COP(=O)(O)O)C(=O)O
readoutName: pKd
# pKd is unitless: minus log10 of the molar concentration; print number only

Name the reported pKd value associated with the binder YAG[pS][pT]DEN[pT]D[pS]EEHQ-NH2 (N-terminus assumed; SMILES C[C@H](NC(=O)[C@@H](N)Cc1ccc(O)cc1)C(=O)NCC(=O)N[C@@H](COP(=O)(O)O)C(=O)N[C@H](C(=O)N[C@@H](CC(=O)O)C(=O)N[C@@H](CCC(=O)O)C(=O)N[C@@H](CC(N)=O)C(=O)N[C@H](C(=O)N[C@@H](CC(=O)O)C(=O)N[C@@H](COP(=O)(O)O)C(=O)N[C@@H](CCC(=O)O)C(=O)N[C@@H](CCC(=O)O)C(=O)N[C@@H](Cc1c[nH]cn1)C(=O)N[C@@H](CCC(N)=O)C(N)=O)[C@@H](C)OP(=O)(O)O)[C@@H](C)OP(=O)(O)O) [XRCC1 515-529 peptide phosphorylated on Ser518, Thr519, Thr523 and Ser525]
4.96

Similarly, YDESTDEES (HELM PEPTIDE1{Y.D.E.[O=C([C@H](COP(=O)(O)O)N[*:1])[*:2]].[C[C@@H](OP(=O)(O)O)[C@H](N[*:1])C(=O)[*:2]].D.E.E.S.[am]}$$$$V2.0; N-terminus assumed; SMILES C[C@@H](OP(=O)(O)O)[C@H](NC(=O)[C@H](COP(=O)(O)O)NC(=O)[C@H](CCC(=O)O)NC(=O)[C@H](CC(=O)O)NC(=O)[C@@H](N)Cc1ccc(O)cc1)C(=O)N[C@@H](CC(=O)O)C(=O)N[C@@H](CCC(=O)O)C(=O)N[C@@H](CCC(=O)O)C(=O)N[C@@H](CO)C(N)=O) [XRCC4 229-237 peptide phosphorylated on Ser232 and Thr233] ?
6.33

Here is the next binder: YDE[pS][pT]DEE[pS]-NH2 (N-terminus assumed; SMILES C[C@@H](OP(=O)(O)O)[C@H](NC(=O)[C@H](COP(=O)(O)O)NC(=O)[C@H](CCC(=O)O)NC(=O)[C@H](CC(=O)O)NC(=O)[C@@H](N)Cc1ccc(O)cc1)C(=O)N[C@@H](CC(=O)O)C(=O)N[C@@H](CCC(=O)O)C(=O)N[C@@H](CCC(=O)O)C(=O)N[C@@H](COP(=O)(O)O)C(N)=O) [XRCC4 229-237 peptide phosphorylated on Ser232, Thr233 and Ser237]
6.38

Same read-out for YAG[pS][pT]DEN[pT]DSEEHQ-NH2 (N-terminus assumed; SMILES C[C@H](NC(=O)[C@@H](N)Cc1ccc(O)cc1)C(=O)NCC(=O)N[C@@H](COP(=O)(O)O)C(=O)N[C@H](C(=O)N[C@@H](CC(=O)O)C(=O)N[C@@H](CCC(=O)O)C(=O)N[C@@H](CC(N)=O)C(=O)N[C@H](C(=O)N[C@@H](CC(=O)O)C(=O)N[C@@H](CO)C(=O)N[C@@H](CCC(=O)O)C(=O)N[C@@H](CCC(=O)O)C(=O)N[C@@H](Cc1c[nH]cn1)C(=O)N[C@@H](CCC(N)=O)C(N)=O)[C@@H](C)OP(=O)(O)O)[C@@H](C)OP(=O)(O)O) [XRCC1 515-529 peptide phosphorylated on Ser518, Thr519 and Thr523] ?
4.96

Can you check YDESTDEES (HELM PEPTIDE1{Y.D.E.S.[C[C@@H](OP(=O)(O)O)[C@H](N[*:1])C(=O)[*:2]].D.E.E.S.[am]}$$$$V2.0; N-terminus assumed; SMILES C[C@@H](OP(=O)(O)O)[C@H](NC(=O)[C@H](CO)NC(=O)[C@H](CCC(=O)O)NC(=O)[C@H](CC(=O)O)NC(=O)[C@@H](N)Cc1ccc(O)cc1)C(=O)N[C@@H](CC(=O)O)C(=O)N[C@@H](CCC(=O)O)C(=O)N[C@@H](CCC(=O)O)C(=O)N[C@@H](CO)C(N)=O) [XRCC4 229-237 peptide phosphorylated on Thr233] next?
5.44

The values you see were collected from paper PMC4655838.
